recombinant barcode read abundance (log10): recorded values
- Test: recombinant barcode read abundance after kanamycin selection (control-corrected) (log10(CPM+1)); higher = more efficient recombination; sequences stand for … in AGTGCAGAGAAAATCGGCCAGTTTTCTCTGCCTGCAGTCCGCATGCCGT…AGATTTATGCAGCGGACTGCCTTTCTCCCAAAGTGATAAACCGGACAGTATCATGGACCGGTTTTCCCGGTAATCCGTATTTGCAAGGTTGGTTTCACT; site = the 11-nt target
Would you mind answering with just the numeric figure?

Answered cases to consult:
[ask] Requested read-out: recombinant barcode read abundance (log10). Entry: GCGGTGACTTGGGTTCTAACCTGTTGCCT (site CCGGTGACTAG)
[reply] 0.172

[ask] I am curious: what recombinant barcode read abundance (log10) value has been reported for TAATCCTCTTGGGTTCTAACCTGTTGCCT (site TAATCCTCTAG) ?
[reply] 1.3

[ask] Recorded recombinant barcode read abundance (log10) for CTCCGTCCTTGGGTTCTAACCTGTTGCTT (site CTCCGTCCTAA) , please?
[reply] 0.445

Continuing:
[ask] Consider the sequence ACGAGTACTTGGGTTCTAACCTGTTGCTG (site ACGAGTACTCC) and give its measured recombinant barcode read abundance (log10).
[reply] 0.662

---

- Test: recombinant barcode read abundance after kanamycin selection (control-corrected) (log10(CPM+1)); higher = more efficient recombination; sequences stand for … in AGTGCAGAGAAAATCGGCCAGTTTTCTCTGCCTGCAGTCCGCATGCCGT…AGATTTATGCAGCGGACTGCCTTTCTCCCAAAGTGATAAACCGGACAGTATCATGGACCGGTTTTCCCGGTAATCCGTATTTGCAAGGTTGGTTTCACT; site = the 11-nt target
Would you please tag the item MET when its recombinant barcode read abundance (log10) is 0.09 or above, and NOT MET when it is below?

[ask] Is recombinant barcode read abundance (log10) for GTTTGATCTTGGGTTCTAACCTGTTGCCT (site GTTTGCTCTAG) at or above 0.09?
[reply] NOT MET

[ask] Hi, just wondering whether ACAAATCCTTGGGTTCTAACCTGTTGCCT (site ACAAAACCTAG) shows recombinant barcode read abundance (log10) of 0.09 or higher.
[reply] MET

From here, focus on the item given below.
[ask] Does recombinant barcode read abundance (log10) meet or surpass 0.09 for CTATGGACTTGGGTTCTAACCTGTTGCCT (site CTATAGACTAG) ?
[reply] MET

---

- Test: recombinant UMI read abundance after kanamycin selection (control-corrected) (log10(CPM+1)); higher = more efficient recombination; extreme values may be limits of the assay; sequences stand for … in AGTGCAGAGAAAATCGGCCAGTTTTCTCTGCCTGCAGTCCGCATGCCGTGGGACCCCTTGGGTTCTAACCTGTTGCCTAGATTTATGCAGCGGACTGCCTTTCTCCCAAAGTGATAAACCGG…AGGTTGGTTTCACT; site = the 11-nt donor
Assay Readout: recombinant UMI read abundance (log10)
Output spec: single numeric token, no unit.

[ask] Find the recorded recombinant UMI read abundance (log10) belonging to CCCGGTCCATGGACCGGTTTTCCCGGTAATCCGTATTTGCT (site CCCGGTCCTGG) and report it.
[reply] 0

More entries:
[ask] Need recombinant UMI read abundance (log10) of GATTTGACATGGACCGGTTTTCCCGGTAATCCGTATTTGAC (site GATTTGACTGT) , thanks.
[reply] 0.525

[ask] Which measured recombinant UMI read abundance (log10) value corresponds to AGGGTACCATGGACCGGTTTTCCCGGTAATCCGTATTTGTA (site AGGGTACCTTA) ?
[reply] 0.0065
